# Test system: Plasmodium berghei
# assayText: Luciferase/luciferin-expressing antifolate-resistant parasites were used to infect a culture of HepG2 cells that were pre-incubated with compounds. Infected hepatocytes emit light due to the luciferase reaction. Assay results are presented as the percent inhibition of light emission compared to control. […]
# Format: functional
# settings: sporozoite, HEPG2TOX_HILL_SLOPE 6.22, HEPG2TOX_R_SQUARED 0.551, PBLUC_HILL_SLOPE 3.17, PBLUC_R_SQUARED 0.265, read-out: LUCIFERASE INFECTION ASSAY - IC50
endpoint: pIC50
Field pIC50 (float): negative decimal logarithm of the concentration in molar.

Exercise: What value of measured pIC50 is listed for "Cc1ccc(-c2noc(CCC(=O)N3CCN(C/C=C/c4ccccc4)CC3)n2)cc1" ?
Solution: 5.29
